# logP at 5 h per record follows
experiment: N-octanol/0.15 M NaHCO3 partition coefficient, log P of the compound after 5 hrs by spectrophotometric analysis; assay type: physicochemical

{"smiles_record": "COc1cc2oc(-c3ccc(O)cc3)cc(=O)c2c(O)c1O", "logP at 5 h": 1.03}
{"smiles_record": "COc1ccc(-c2cc(=O)c3c(O)c(OC)c(O)cc3o2)cc1", "logP at 5 h": 1.86}
{"smiles_record": "COc1c(O)c(O)cc2oc(-c3ccc(O)cc3)cc(=O)c12", "logP at 5 h": 0.892}
{"smiles_record": "COc1ccc(-c2cc(=O)c3c(O)c(OC)c(OC)cc3o2)cc1", "logP at 5 h": 2.27}
{"smiles_record": "COc1c(O)cc2oc(-c3ccc(O)cc3)cc(=O)c2c1O", "logP at 5 h": 1.02}
{"smiles_record": "O=c1cc(-c2ccc(O)cc2)oc2cc(O)c(O)c(O)c12", "logP at 5 h": 0.48}
{"smiles_record": "COc1ccc(-c2cc(=O)c3c(O)c(O)c(OC)cc3o2)cc1", "logP at 5 h": 1.4}
{"smiles_record": "COc1cc2oc(-c3ccc(O)cc3)cc(=O)c2c(O)c1OC", "logP at 5 h": 1.81}
{"smiles_record": "O=C(O)[C@H]1O[C@@H](Oc2cc3oc(-c4ccc(O)cc4)cc(=O)c3c(O)c2O)[C@H](O)[C@@H](O)[C@@H]1O", "logP at 5 h": -0.0513}
{"smiles_record": "COc1ccc(-c2cc(=O)c3c(O)c(O)c(O)cc3o2)cc1", "logP at 5 h": 0.785}

###

assay: Antioxidant activity assessed as DPPH radical scavenging activity after 30 mins; format: physicochemical

{"smiles_record": "COc1ccc(-c2cc(=O)c3c(O)c(OC)c(OC)cc3o2)cc1", "IC50, µM": 463}
{"smiles_record": "O=c1cc(-c2ccc(O)cc2)oc2cc(O)c(O)c(O)c12", "IC50, µM": 22.6}
{"smiles_record": "COc1cc2oc(-c3ccc(O)cc3)cc(=O)c2c(O)c1OC", "IC50, µM": 190}
{"smiles_record": "COc1ccc(-c2cc(=O)c3c(O)c(O)c(OC)cc3o2)cc1", "IC50, µM": 159}
{"smiles_record": "COc1c(O)cc2oc(-c3ccc(O)cc3)cc(=O)c2c1O", "IC50, µM": 23.7}

###

assay: N-octanol/0.15 M NaCl partition coefficient, log P of the compound after 5 hrs by spectrophotometric analysis; assay type: physicochemical
Tick true if logP at 5 h is 2 or greater. Tick false if logP at 5 h is less than 2.

{"compound": "COc1c(O)cc2oc(-c3ccc(O)cc3)cc(=O)c2c1O [HISPIDULIN]", "class": "false"}
{"compound": "COc1ccc(-c2cc(=O)c3c(O)c(OC)c(O)cc3o2)cc1 [PECTOLINARIGENIN]", "class": "true"}
{"compound": "COc1ccc(-c2cc(=O)c3c(O)c(OC)c(OC)cc3o2)cc1 [SALVIGENIN]", "class": "true"}
{"compound": "COc1cc2oc(-c3ccc(O)cc3)cc(=O)c2c(O)c1O", "class": "false"}
{"compound": "O=C(O)[C@H]1O[C@@H](Oc2cc3oc(-c4ccc(O)cc4)cc(=O)c3c(O)c2O)[C@H](O)[C@@H](O)[C@@H]1O [SCUTELLARIN]", "class": "false"}
{"compound": "COc1ccc(-c2cc(=O)c3c(O)c(O)c(OC)cc3o2)cc1 [LADANEIN]", "class": "false"}
